Data provenance: patent US20230310388A1

system: Candida albicans; assay: CLSI broth microdilution MIC (Example 3); format: cell-based; details: Candida albicans; 1st
What MIC was measured for each of the following?
One number for each entry, in µg/mL.

Completed entries (count: 4):
1. [H]/N=C(\N)NN=C(CCCCCC)c1ccc(Cl)cc1 [NCL265] ... 2
2. [H]/N=C(\N)NN=C(CC1CCCCC1)c1ccc(Cl)cc1 [NCL259] ... 4
3. C[C@@H]1[C@H](O)[C@@H](C)/C=C/C=C/C=C/C=C/C=C/C=C/C=C/[C@H](O[C@@H]2O[C@H](C)[C@@H](O)[C@H](N)[C@@H]2O)C[C@@H]2O[C@](O)(C[C@@H](O)C[C@@H](O)[C@H](O)CC[C@@H](O)C[C@@H](O)CC(=O)O[C@H]1C)C[C@H](O)[C@H]2C(=O)O [Amphotericin B, reference compound] ... 0.5
4. C/C(=N\NC(=N)N/N=C(\C)c1ccc(Cl)cc1)c1ccc(Cl)cc1.Cl [NCL062] ... 0.5

Here's the next entry for you.
Query :: What does the data say about its MIC? Entry: Cc1ccc(/C=N/Nc2cc(N/N=C/c3ccc(C)cc3)nc(N)n2)cc1 [NCL195]
Result :: 2

* * *

system: Cryptococcus neoformans; experiment: CLSI broth microdilution MIC (Example 4); format: cell-based; settings: Cryptococcus neoformans SA2
experimental endpoint: MIC at 24-48 hours (µg/mL)
Give bare numbers, in µg/mL.

1) C/C(=N\NC(=N)N/N=C(\C)c1ccc(Cl)cc1)c1ccc(Cl)cc1.Cl [NCL062] ... 1
2) C[C@@H]1[C@H](O)[C@@H](C)/C=C/C=C/C=C/C=C/C=C/C=C/C=C/[C@H](O[C@@H]2O[C@H](C)[C@@H](O)[C@H](N)[C@@H]2O)C[C@@H]2O[C@](O)(C[C@@H](O)C[C@@H](O)[C@H](O)CC[C@@H](O)C[C@@H](O)CC(=O)O[C@H]1C)C[C@H](O)[C@H]2C(=O)O [Amphotericin B, reference compound] ... 0.3
3) Nc1nc(NN=Cc2ccc(F)cc2)cc(NN=Cc2ccc(F)cc2)n1 [NCL220] ... 4

Here's the next entry for you.
Query :: What does the data say about its MIC at 24-48 hours? Entry: Cl.N#Cc1ccc(C=NNC(=N)NN=Cc2ccc(C#N)cc2)cc1 [NCL024]
Result :: 32

* * *

system: Cryptococcus neoformans; test: CLSI broth microdilution MIC (Example 4); type: cell-based; conditions: Cryptococcus neoformans SA2
What MIC at 24-48 hours was measured for each of the following?
Give bare numbers, in µg/mL.

Completed entries (count: 4):
1. COc1ccc(C=NNC(=N)NN=Cc2ccc(OC)c(OC)c2)cc1OC.Cl ... 8
2. N=C(N/N=C/c1ccc(Cl)cc1)N/N=C/c1ccc(Cl)cc1 [NCL812, robenidine, reference compound] ... 2
3. [H]/N=C(\N)NN=C(CC1CCCCC1)c1ccc(Cl)cc1 ... 2
4. [H]/N=C(\N)NN=C(CCCCCC)c1ccc(Cl)cc1 ... 1

Batch request: MIC at 24-48 hours per item, same order as input.
1. Cl.N=C(NN=Cc1cc(O)c(O)c(O)c1)NN=Cc1cc(O)c(O)c(O)c1
2. C/C(=N\NC(=N)N/N=C(\C)c1ccc(C(C)(C)C)cc1)c1ccc(C(C)(C)C)cc1.Cl

Result ::
[16, 2]

* * *

test system: Candida albicans; experiment: CLSI broth microdilution MIC (Example 5); assay type: cell-based; conditions: clinical isolate C. albicans 16-90054237
experimental endpoint: MIC

1. [H]/N=C(\N)NN=C(CC1CCCCC1)c1ccc(Cl)cc1 ... 32 µg/mL

Batch request: MIC per item, same order as input.
1. Nc1nc(NN=Cc2ccc(F)cc2)cc(NN=Cc2ccc(F)cc2)n1
2. Cl.N#Cc1ccc(C=NNC(=N)NN=Cc2ccc(C#N)cc2)cc1
3. CN(C)c1ccc(/C=N/NC(=N)N/N=C/c2ccc(N(C)C)cc2)cc1.Cl
4. Cl.N=C(NN=Cc1cc(O)c(O)c(O)c1)NN=Cc1cc(O)c(O)c(O)c1
5. C[C@@H]1[C@H](O)[C@@H](C)/C=C/C=C/C=C/C=C/C=C/C=C/C=C/[C@H](O[C@@H]2O[C@H](C)[C@@H](O)[C@H](N)[C@@H]2O)C[C@@H]2O[C@](O)(C[C@@H](O)C[C@@H](O)[C@H](O)CC[C@@H](O)C[C@@H](O)CC(=O)O[C@H]1C)C[C@H](O)[C@H]2C(=O)O [Amphotericin B, reference compound]
6. Cc1ccc(/C=N/Nc2cc(N/N=C/c3ccc(C)cc3)nc(N)n2)cc1
7. C/C(=N\NC(=N)N/N=C(\C)c1ccc(C(C)(C)C)cc1)c1ccc(C(C)(C)C)cc1.Cl

Result ::
8 µg/mL
4 µg/mL
8 µg/mL
4 µg/mL
0.125 µg/mL
4 µg/mL
>16 µg/mL

* * *

What MIC was measured for each of the following?
system: C. gattii; assay: CLSI broth microdilution MIC (Example 6); type: cell-based, Cryptococcus gattii; conditions: human clinical isolate C. gattii 16-90050373
Numbers only, in µg/mL.

1) Cl.N=C(NN=Cc1cc(O)c(O)c(O)c1)NN=Cc1cc(O)c(O)c(O)c1 ... 16
2) Cl.N=C(NN=Cc1cccc(F)c1)NN=Cc1cccc(F)c1 ... 8
3) [H]/N=C(\N)NN=C(CC1CCCCC1)c1ccc(Cl)cc1 ... 8

Batch request: MIC per item, same order as input.
1. C[C@@H]1[C@H](O)[C@@H](C)/C=C/C=C/C=C/C=C/C=C/C=C/C=C/[C@H](O[C@@H]2O[C@H](C)[C@@H](O)[C@H](N)[C@@H]2O)C[C@@H]2O[C@](O)(C[C@@H](O)C[C@@H](O)[C@H](O)CC[C@@H](O)C[C@@H](O)CC(=O)O[C@H]1C)C[C@H](O)[C@H]2C(=O)O [Amphotericin B, reference compound]
2. Cc1ccc(/C=N/Nc2cc(N/N=C/c3ccc(C)cc3)nc(N)n2)cc1

Result ::
1: 1; 2: 2

* * *

What MIC was measured for each of the following?
tested on: Candida albicans; test: CLSI broth microdilution MIC (Example 3); type: cell-based; conditions: Candida albicans ATCC 90028; 1st

Completed entries (count: 5):
1. C[C@@H]1[C@H](O)[C@@H](C)/C=C/C=C/C=C/C=C/C=C/C=C/C=C/[C@H](O[C@@H]2O[C@H](C)[C@@H](O)[C@H](N)[C@@H]2O)C[C@@H]2O[C@](O)(C[C@@H](O)C[C@@H](O)[C@H](O)CC[C@@H](O)C[C@@H](O)CC(=O)O[C@H]1C)C[C@H](O)[C@H]2C(=O)O [Amphotericin B, reference compound] ... 0.25 µg/mL
2. [H]/N=C(\N)NN=C(CCCCCC)c1ccc(Cl)cc1 ... 2 µg/mL
3. Cc1ccc(/C=N/Nc2cc(N/N=C/c3ccc(C)cc3)nc(N)n2)cc1 ... 2 µg/mL
4. C/C(=N\NC(=N)N/N=C(\C)c1ccc(C(C)(C)C)cc1)c1ccc(C(C)(C)C)cc1.Cl ... >32 µg/mL
5. C/C(=N\NC(=N)N/N=C(\C)c1ccc(Cl)cc1)c1ccc(Cl)cc1.Cl ... 1 µg/mL

Here's the next entry for you.
Query :: What does the data say about its MIC? Entry: [H]/N=C(\N)NN=C(CC1CCCCC1)c1ccc(Cl)cc1
Result :: 4 µg/mL

* * *

test system: Candida albicans; assay: CLSI broth microdilution MIC (Example 4); format: cell-based; settings: summary in words
experimental endpoint: antifungal activity against the two isolates of Candida albicans

Completed entries (count: 4):
1. Nc1nc(NN=Cc2ccc(F)cc2)cc(NN=Cc2ccc(F)cc2)n1 ... high antifungal activity
2. C/C(=N\NC(=N)N/N=C(\C)c1ccc(Cl)cc1)c1ccc(Cl)cc1.Cl ... high antifungal activity
3. Cc1ccc(/C=N/Nc2cc(N/N=C/c3ccc(C)cc3)nc(N)n2)cc1 ... high antifungal activity
4. Cl.N=C(NN=Cc1cc(O)c(O)c(O)c1)NN=Cc1cc(O)c(O)c(O)c1 ... high antifungal activity

Query :: What does the data say about its antifungal activity against the two isolates of Candida albicans? Entry: Cl.N=C(NN=Cc1cccc(F)c1)NN=Cc1cccc(F)c1
Result :: high antifungal activity

* * *

What MIC at 24-48 hours was measured for each of the following?
tested on: Candida albicans; test: CLSI broth microdilution MIC (Example 4); format: cell-based; conditions: Candida albicans SA3

Completed entries (count: 10):
1) Cl.N=C(NN=Cc1cc(Cl)cc(Cl)c1)NN=Cc1cc(Cl)cc(Cl)c1 [NCL114] ... >32 µg/mL
2) [H]/N=C(\N)NN=C(CCCCCC)c1ccc(Cl)cc1 [NCL265] ... 8 µg/mL
3) Nc1nc(NN=Cc2ccc(F)cc2)cc(NN=Cc2ccc(F)cc2)n1 [NCL220] ... 32 µg/mL
4) CN(C)c1ccc(/C=N/NC(=N)N/N=C/c2ccc(N(C)C)cc2)cc1.Cl [NCL113] ... >32 µg/mL
5) Cl.N=C(N)N/N=C/c1ccc(C(F)(F)F)cc1F [NCL263] ... >32 µg/mL
6) COc1cc(Br)c(C=NNC(=N)NN=Cc2cc(OC)c(OC)cc2Br)cc1OC.Cl [NCL135] ... >32 µg/mL
7) COc1ccc(C=NNC(=N)NN=Cc2ccc(OC)c(OC)c2)cc1OC.Cl [NCL115] ... >32 µg/mL
8) C/C(=N\NC(=N)N/N=C(\C)c1ccc(C(C)(C)C)cc1)c1ccc(C(C)(C)C)cc1.Cl [NCL219] ... 16 µg/mL
9) Cl.N=C(NN=Cc1ccccc1Cl)NN=Cc1ccccc1Cl [NCL020] ... >32 µg/mL
10) Clc1ccc(C=NNc2cc(NN=Cc3ccc(Cl)cc3)ncn2)cc1 [NCL181] ... >32 µg/mL

Batch request: MIC at 24-48 hours per item, same order as input.
1. C/C(=N\NC(=N)N/N=C(\C)c1ccc(Cl)cc1)c1ccc(Cl)cc1.Cl [NCL062]
2. Cl.N=C(NN=Cc1cc(O)c(O)c(O)c1)NN=Cc1cc(O)c(O)c(O)c1 [NCL097]
3. OCC(=NNc1cc(NN=C(CO)c2ccc(Cl)cc2)ncn1)c1ccc(Cl)cc1 [NCL180]

Result ::
1 µg/mL
8 µg/mL
>32 µg/mL

Batch request: MIC at 24-48 hours per item, same order as input.
1. Cl.N=C(NN=Cc1ccc([N+](=O)[O-])cc1)NN=Cc1ccc([N+](=O)[O-])cc1 [NCL110]
2. C[C@@H]1[C@H](O)[C@@H](C)/C=C/C=C/C=C/C=C/C=C/C=C/C=C/[C@H](O[C@@H]2O[C@H](C)[C@@H](O)[C@H](N)[C@@H]2O)C[C@@H]2O[C@](O)(C[C@@H](O)C[C@@H](O)[C@H](O)CC[C@@H](O)C[C@@H](O)CC(=O)O[C@H]1C)C[C@H](O)[C@H]2C(=O)O [Amphotericin B, reference compound]
3. CC(=NNC(=N)N)c1c[nH]c2ccccc12 [NCL269]
4. Cl.N=C(NN=Cc1cnc2ccccc2c1)NN=Cc1cnc2ccccc2c1 [NCL139]

Result ::
[">32 µg/mL", "2 µg/mL", ">32 µg/mL", ">32 µg/mL"]
